Test system: neutrophils
assay notes: Neutrophil calcium flux assay (5-OXO-ETE-stimulated, Indo-1 fluorescence)
Format: cell-based
protocol conditions: Neutrophil, 5-OXO-ETE-stimulated calcium flux
endpoint: IC50

> print(dat)
                                   molecule  observed.value
1  CC(CC(=O)O)CC(=O)c1c(CCCCOCc2cccc(C(=O)N(C)C)c2)n(C)c2ncc(C#N)cc12 (stereo not shown)        < 0.1 µM
2  C[C@H](CC(=O)O)N(C)C(=O)c1c(CCCCCCc2cccc(Cl)c2)n(C)c2ccc(Cl)cc12        > 0.3 µM
3  C[C@@H](CC(=O)O)CC(=O)c1c([C@@H](O)CCCCCc2cccc(Cl)c2)n(C)c2ccc(Cl)cc12        > 0.3 µM
4  C[C@H](CC(=O)O)CC(=O)c1c(CCCCCCc2cccc(Cl)c2)n(C)c2ccc(Cl)cc12        < 0.1 µM

----------
Listed here are molecules together with their documented IC50.
Test system: neutrophils
assay notes: Neutrophil calcium flux assay (5-OXO-ETE-stimulated, Indo-1 fluorescence)
Type: cell-based
protocol conditions: Neutrophil, 5-OXO-ETE-stimulated calcium flux
endpoint: IC50

> print(dat)
                                    molecule  observed.value
 1  [2H]C([2H])([2H])n1c(CCCCCCc2cccc(Cl)c2)c(C(=O)C[C@H](C)CC(=O)O)c2cc(Cl)ccc21        < 100 nM
 2  Cn1c(CCCCCCC#CC2CC(F)(F)C2)c(C(=O)O)c2cc(Br)cnc21        > 300 nM
 3  Cn1c(CCCCCCC#CC2CC(F)(F)C2)c(C(=O)N2CC[C@H](c3nnn[nH]3)C2)c2cc(Cl)ccc21        < 100 nM
 4  Cn1c(CCCCCCc2cccc(Cl)c2)c(C(=O)N2CC(CC(=O)O)C2)c2cc(Cl)cnc21        > 300 nM
 5  CC(CC(=O)O)CC(=O)c1c(C[C@H]2CC[C@@H](OCc3cccc(Cl)c3)CC2)n(C)c2ncc(C#N)cc12 (stereo partly drawn)        > 300 nM
 6  C[C@@H](CC(=O)O)CC(=O)c1c(CCCCCCCC#CC2CC(F)(F)C2)n(C)c2ncc(C#N)cc12        > 300 nM
 7  COc1cnc2c(c1)c(C(=O)CC(C)CC(=O)O)c(CCCCOCc1ccccc1)n2C (stereo not drawn)        > 300 nM
 8  CC(C)CCCCc1c(C(=O)C[C@H](C)CC(=O)O)c2cc(Cl)ccc2n1C   100 to 300 nM
 9  CC(CC(=O)O)CC(=O)c1c(CCCCCC(O)c2cccc(C#N)c2)n(C)c2ncc(Cl)cc12 (stereo not drawn)        < 100 nM
10  Cn1nc(-c2cccc(Cl)c2)c(C(=O)N2CC[C@H](C(=O)O)C2)c1CCCCOCc1cccc(Cl)c1        > 300 nM
11  C[C@H](CC(=O)O)CC(=O)c1c(CCCOCCc2cccc(Cl)c2)n(C)c2ccc(Cl)cc12        < 100 nM
12  CC(CC(=O)O)CC(=O)c1c(CCCCOCc2cccc(Cl)c2)n(C[C@@H](O)CO)c2ncc(Cl)cc12 (stereo partly drawn)        > 300 nM
13  CC(CC(=O)O)CC(=O)c1c(CCCC[S+]([O-])Cc2ccccc2)n(C)c2ncc(C#N)cc12 (stereo not drawn)        > 300 nM
14  CC[C@H](CC(=O)O)CC(=O)c1c(CCCCOCc2ccccc2)n(C)c2ncc(C#N)cc12        > 300 nM
15  C[C@H](CC(=O)O)CC(=O)c1c(CCCCOCc2cccc(C#N)c2)n(C)c2cc(F)ccc12        < 100 nM
16  C[C@@H](CC(=O)O)CC(=O)c1c(CCCCOCc2cccc(OC(F)(F)F)c2)n(C)c2cnccc12        > 300 nM
17  CC(CC(=O)O)CC(=O)c1c(CCCCCCC#CCC(F)(F)F)n(C)c2ccc(Cl)cc12 (stereo not drawn)   100 to 300 nM
18  C[C@@H](CC(=O)O)CC(=O)c1c(CCCCCCc2cccc(Cl)c2)n(C)c2ccc(Cl)cc12        > 300 nM
19  C[C@H](CC(=O)O)CC(=O)c1c(CCCCOCc2cccc(Cl)c2)[nH]c2ccc(Cl)cc12   100 to 300 nM
20  C[C@@H](CC(=O)c1c(CCCCOCc2ccccc2)n(C)c2ncc(C#N)cc12)Cc1nnn[nH]1        < 100 nM
21  Cn1c(CCCCOCc2cccc(Cl)c2)c(C(=O)N2CC[C@H](C(=O)O)C2)c2cc(C(F)(F)F)ccc21   100 to 300 nM

----------
Listed here are molecules together with their documented pIC50.
target system: UniProtKB Q8TDS5
Sequence (Q8TDS5 whole entry): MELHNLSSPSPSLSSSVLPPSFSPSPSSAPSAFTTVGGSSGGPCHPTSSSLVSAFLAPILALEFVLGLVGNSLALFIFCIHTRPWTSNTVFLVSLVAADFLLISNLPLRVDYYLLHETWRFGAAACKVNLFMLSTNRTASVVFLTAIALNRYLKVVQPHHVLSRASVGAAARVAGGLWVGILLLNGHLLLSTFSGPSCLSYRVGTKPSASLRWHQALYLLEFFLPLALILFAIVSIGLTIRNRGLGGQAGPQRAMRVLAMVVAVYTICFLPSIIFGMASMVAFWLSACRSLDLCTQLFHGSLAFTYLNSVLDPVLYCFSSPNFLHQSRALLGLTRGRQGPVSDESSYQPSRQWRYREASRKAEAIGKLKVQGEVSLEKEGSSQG
assay notes: BRET early endosome trafficking assay (OXER1-Rluc8 / rGFP-FYVE in HEK293 cells)
protocol conditions: HEK293 cells transfected with OXER1-Rluc8 and rGFP-FYVE, 5-oxo-ETE agonist
pIC50: −log10 of the molar value.
endpoint: pIC50

> print(dat)
                                    molecule     target.system  observed.value
 1  C[C@H](CC(=O)O)CC(=O)c1c(CCCCCCc2cccc(Cl)c2)sc2ccc(Cl)cc12  UniProtKB Q8TDS5          > 7.00
 2  C[C@H](CC(=O)O)CC(=O)c1c(CCCCCCc2cccc(Cl)c2)n(C)c2ccc(C#N)cc12  UniProtKB Q8TDS5          > 7.00
 3  C[C@H](CC(=O)O)CC(=O)c1c(CCCCCOc2cccc(Cl)c2)n(C)c2ccc(Cl)cc12  UniProtKB Q8TDS5    6.52 to 7.00
 4  CC(CC(=O)O)CC(=O)c1c(CCCCOCc2ccccc2)n(C)c2ncc(C#N)cc12 (stereo not drawn)  UniProtKB Q8TDS5    6.52 to 7.00
 5  C[C@H](CC(=O)O)CC(=O)c1c([C@@H](O)CCCCCc2cccc(Cl)c2)n(C)c2ccc(Cl)cc12  UniProtKB Q8TDS5          > 7.00
 6  C[C@H](CC(=O)O)CC(=O)c1c(CCCCOCc2cccc(Cl)c2)n(C)c2ncc(Cl)cc12  UniProtKB Q8TDS5    6.52 to 7.00
 7  CONC(=O)C[C@H](C)CC(=O)c1c(CCCCCCc2cccc(Cl)c2)n(C)c2ccc(Cl)cc12  UniProtKB Q8TDS5          < 6.52
 8  C[C@H](CC(=O)O)CC(=O)c1c(CCCCCC(F)c2cccc(Cl)c2)n(C)c2ccc(Cl)cc12 (stereo partly drawn)  UniProtKB Q8TDS5          > 7.00
 9  C[C@H](CC(=O)O)CC(=O)c1c(CCCCCCc2ccccc2)n(C)c2ccc(Cl)cc12  UniProtKB Q8TDS5          > 7.00
10  C[C@H](CC(=O)O)CC(=O)c1c(CCCCCCc2cccc(F)c2)n(C)c2ccc(Cl)cc12  UniProtKB Q8TDS5          > 7.00
11  C[C@H](CC(=O)O)CC(=O)c1c(CCCCCC(O)c2cccc(Cl)c2)n(C)c2ccc(Cl)cc12 (stereo partly drawn)  UniProtKB Q8TDS5          > 7.00
12  C[C@H](CC(=O)O)CC(=O)c1c(CCCCCCc2ccc(O)cc2)n(C)c2ccc(Cl)cc12  UniProtKB Q8TDS5          > 7.00
13  CCCCCCc1c(C(=O)C[C@H](C)CC(=O)O)c2cc(Cl)ccc2n1C  UniProtKB Q8TDS5    6.52 to 7.00
14  C[C@H](CC(=O)O)CC(=O)c1c(CCCCCCc2cccc(Cl)c2)n(C)c2ccc(Cl)cc12  UniProtKB Q8TDS5          > 7.00
15  CONC(=O)C[C@@H](C)CC(=O)c1c(CCCCCCc2cccc(Cl)c2)n(C)c2ccc(Cl)cc12  UniProtKB Q8TDS5          < 6.52
16  CC(CC(=O)O)CC(=O)c1c(CCCCOCc2cccc(Cl)c2)n(C)c2ccc(C(F)(F)F)cc12 (stereo not drawn)  UniProtKB Q8TDS5    6.52 to 7.00
17  [2H]C([2H])([2H])n1c(CCCCCCc2cccc(Cl)c2)c(C(=O)C[C@H](C)CC(=O)O)c2cc(Cl)ccc21  UniProtKB Q8TDS5          > 7.00
18  C[C@H](CC(=O)O)CC(=O)c1c([C@H](O)CCCCCc2cccc(Cl)c2)n(C)c2ccc(Cl)cc12  UniProtKB Q8TDS5          < 6.52
19  C[C@H](CC(=O)O)CC(=O)c1c(CCCCCC(O)c2cccc(Cl)c2)n(C)c2ncc(Cl)cc12 (stereo partly drawn)  UniProtKB Q8TDS5          > 7.00
20  C[C@H](CC(=O)O)CC(=O)n1c(CCCCCCc2cccc(Cl)c2)cc2ccc(Cl)cc21  UniProtKB Q8TDS5    6.52 to 7.00
21  C[C@H](CC(=O)O)CC(=O)c1c(CCCCOCc2cccc(Cl)c2)n(C)c2ccc(Cl)cc12  UniProtKB Q8TDS5    6.52 to 7.00
22  C[C@H](CC(=O)O)CC(=O)c1c(CCCCCCc2cccc(Cl)c2)oc2ccc(Cl)cc12  UniProtKB Q8TDS5    6.52 to 7.00
23  C[C@@H](CC(=O)O)CC(=O)c1c(CCCCCCc2cccc(Cl)c2)oc2ccc(Cl)cc12  UniProtKB Q8TDS5    6.52 to 7.00
24  C[C@@H](CC(=O)c1c(CCCCCCc2cccc(Cl)c2)n(C)c2ccc(Cl)cc12)Cc1nnn[nH]1  UniProtKB Q8TDS5          > 7.00
